The values you see were collected from PubChem BioAssay (NCI).

Reported growth values are given for each entry in this list.
# System: M14 melanoma
# protocolDetails: NCI-60 one-dose screen, 48 h (100 = growth as untreated, 0 = no growth, -100 = all killed)
# cond: 10 µM
This is part of a sample that, as a whole, favours compounds with a hit. Of some 83,000 tested, about 20% had one in any assay.
Supply the numeric figure in %, leaving out any unit text.

// below: answered molecules
- molecule: "Cc1ccc(/C(C#N)=C/c2ccc3c(c2)OCO3)cc1"
  growth, %: 75.2
- molecule: "Cc1ncc(C#N)c(N)n1"
  growth, %: 95.9

Prompt: # get_value(readout='growth', item= C#Cc1cccc(NC(=O)c2ccc(Cl)cc2Cl)c1 )
Response: 98

Prompt: Moving on to the next molecule: CC(CN1CCCCC1)NC(=O)c1scnc1-c1ccccc1 (stereo not drawn)
Response: 101

Prompt: Moving on to the next molecule: Cc1cc(C)cc(NCCC#N)c1
Response: 117

Prompt: Moving on to the next molecule: COc1cc(C2NC(=O)C(C#N)=C(Nc3cccc(C)c3)S2)ccc1O (stereo not drawn)
Response: 101

Prompt: Moving on to the next molecule: CC1CCCC(CC(N)=O)CC1 (stereo not drawn)
Response: 108

Prompt: Moving on to the next molecule: CC(C)=CC(=O)OC(=O)C=C(C)C
Response: 107

Prompt: Moving on to the next molecule: CS(=O)CC1=NC(=N)N=C1CS(C)=O (stereo not drawn)
Response: 105

---

# Tested on: NCI-H226 lung
# protocolDetails: NCI-60 one-dose screen, 48 h (100 = growth as untreated, 0 = no growth, -100 = all killed)
# cond: 10 µM
The panel holds about 83,000 compounds, 20% with a hit somewhere; the sample as a whole holds those more often.
Reported growth values are given for each entry in this list.
Supply the numeric figure in %, leaving out any unit text.

// below: answered compounds
- testSmiles: "CC(=O)CC(=O)N(C)C"
  growth (%): 94.5
- testSmiles: "C=C[Si](OC(C)=O)(OC(C)=O)OC(C)=O"
  growth (%): 111
- testSmiles: "Cc1ccc(C)n1-c1ccsc1C(=O)NNC(=O)C(Cl)Cl"
  growth (%): 93
- testSmiles: "CC[N+](C)(CC)CCO"
  growth (%): 92.7
- testSmiles: "Sc1ccc(Nc2c3ccccc3nc3ccccc23)cc1"
  growth (%): 91.2

Prompt: Look up growth with NCI-H226 lung for this compound: COc1cc(-c2ccc(NC(=O)NC3CC3)c(OC)c2)ccc1NC(=O)NC1CC1
Response: 102

Prompt: Moving on to the next compound: C=CCNc1ccccc1
Response: 103

Prompt: Moving on to the next compound: CC(=O)Nc1cccc(Cl)c1C
Response: 102

---

# Test system: EKVX NSCLC
# protocolDetails: NCI-60 one-dose screen, 48 h
# cond: 10 µM
About 83,000 compounds went through this panel and 20% of them were active in at least one assay; those are over-represented in the sample as a whole. Activity calls are given as the source filed them. How the source made its calls: active means growth percent below 10; inactive means the rest.
Response enum: active, inactive

- testSmiles: "CCCNC(=O)c1ccc(S(N)(=O)=O)cc1"
  categoryLabel: "inactive"
- testSmiles: "O=c1cc(-c2ccccc2)[nH]c2c1CCCC2"
  categoryLabel: "inactive"

Prompt: Test call for this molecule, please: O=C(O)CCCc1ccccc1
Response: inactive

Prompt: Moving on to the next molecule: Cc1c(O)cccc1O
Response: inactive

Prompt: Moving on to the next molecule: COCCOC(=O)c1ccc(C(C)C)cc1
Response: inactive

Prompt: Moving on to the next molecule: CCN=c1cc2sc3cc(NCC)c(C)cc3nc-2cc1C
Response: active

Prompt: Moving on to the next molecule: O=C(O)CCCCNC(=O)c1ccccc1
Response: inactive

Prompt: Moving on to the next molecule: NC(=S)CN1CCOCC1
Response: inactive
